The measurements presented in this section are drawn from paper PMC11474946.

- measuredTarget: M. tuberculosis gyrase (MTB DNA gyrase) (Mycobacterium tuberculosis, UniProt P9WG45+P9WG47)
- Construct: gene gyrA
- Sequence (P9WG47 2-838): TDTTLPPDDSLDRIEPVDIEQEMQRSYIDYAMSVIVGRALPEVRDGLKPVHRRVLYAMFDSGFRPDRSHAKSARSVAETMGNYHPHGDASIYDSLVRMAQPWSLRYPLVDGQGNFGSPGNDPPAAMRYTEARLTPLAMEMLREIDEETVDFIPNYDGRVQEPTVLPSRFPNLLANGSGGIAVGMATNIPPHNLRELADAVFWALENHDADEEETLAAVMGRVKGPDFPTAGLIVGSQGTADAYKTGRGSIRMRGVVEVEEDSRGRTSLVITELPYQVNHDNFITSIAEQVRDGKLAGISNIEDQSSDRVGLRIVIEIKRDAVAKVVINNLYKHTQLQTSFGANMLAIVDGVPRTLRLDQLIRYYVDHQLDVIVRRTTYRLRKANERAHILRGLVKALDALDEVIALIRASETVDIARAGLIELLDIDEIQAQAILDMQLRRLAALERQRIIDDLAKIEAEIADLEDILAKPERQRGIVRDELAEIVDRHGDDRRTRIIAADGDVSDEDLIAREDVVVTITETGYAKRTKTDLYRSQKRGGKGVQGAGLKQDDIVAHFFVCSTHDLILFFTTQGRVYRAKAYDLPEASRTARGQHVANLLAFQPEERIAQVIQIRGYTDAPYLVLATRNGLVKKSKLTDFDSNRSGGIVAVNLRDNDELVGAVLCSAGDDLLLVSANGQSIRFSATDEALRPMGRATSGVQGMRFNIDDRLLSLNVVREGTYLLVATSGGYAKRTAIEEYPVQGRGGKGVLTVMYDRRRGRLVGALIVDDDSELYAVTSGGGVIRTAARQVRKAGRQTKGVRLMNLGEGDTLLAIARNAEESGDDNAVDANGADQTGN
- Sequence (P9WG45 whole entry): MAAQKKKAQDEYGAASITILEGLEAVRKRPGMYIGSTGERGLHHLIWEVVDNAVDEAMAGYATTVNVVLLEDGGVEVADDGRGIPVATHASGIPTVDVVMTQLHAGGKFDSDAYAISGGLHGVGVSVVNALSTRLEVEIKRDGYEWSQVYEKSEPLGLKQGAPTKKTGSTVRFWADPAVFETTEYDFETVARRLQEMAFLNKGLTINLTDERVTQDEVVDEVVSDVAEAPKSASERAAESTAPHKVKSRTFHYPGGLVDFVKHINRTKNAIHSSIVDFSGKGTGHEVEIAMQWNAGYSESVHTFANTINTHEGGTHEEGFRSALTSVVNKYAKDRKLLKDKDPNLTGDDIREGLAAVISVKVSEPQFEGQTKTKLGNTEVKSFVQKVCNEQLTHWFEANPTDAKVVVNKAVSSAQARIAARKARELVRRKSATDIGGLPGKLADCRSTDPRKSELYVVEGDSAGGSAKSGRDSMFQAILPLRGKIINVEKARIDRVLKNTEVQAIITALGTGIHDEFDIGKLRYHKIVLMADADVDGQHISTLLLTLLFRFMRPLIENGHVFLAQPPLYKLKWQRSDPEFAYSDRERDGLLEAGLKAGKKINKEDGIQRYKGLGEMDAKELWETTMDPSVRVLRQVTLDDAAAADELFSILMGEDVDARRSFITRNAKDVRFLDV
- assayExplanation: DNA supercoiling inhibition, relaxed pBR322, agarose gel
- Assay type: biochemical
Returns: string. Value is criterion met if measured EC50 is below 1 µM, and criterion not met if it is greater than or equal to it.

molecule: Nc1nc(-n2cc(C(=O)O)c(=O)c3cc(F)c(N4CC(O)C4)c(Cl)c32)c(F)cc1F [Delafloxacin]
assignedClass: criterion not met

molecule: C[C@H]1COc2c(N3CCN(C)CC3)c(F)cc3c(=O)c(C(=O)O)cn1c23 [Levofloxacin]
assignedClass: criterion not met

molecule: COc1c(N2CCNC(C)C2)c(F)cc2c(=O)c(C(=O)O)cn(C3CC3)c12 (centres unmarked) [Gatifloxacin]
assignedClass: criterion not met

molecule: CCNC(=O)Nc1nc2cc(-c3cnc(C(C)(C)O)nc3)c(F)c([C@H]3CCCO3)c2[nH]1 [SPR719]
assignedClass: criterion met
